target.under.test: CDK1/Cyclin B (Homo sapiens, UniProt P06493)
Sequence (P06493 whole entry): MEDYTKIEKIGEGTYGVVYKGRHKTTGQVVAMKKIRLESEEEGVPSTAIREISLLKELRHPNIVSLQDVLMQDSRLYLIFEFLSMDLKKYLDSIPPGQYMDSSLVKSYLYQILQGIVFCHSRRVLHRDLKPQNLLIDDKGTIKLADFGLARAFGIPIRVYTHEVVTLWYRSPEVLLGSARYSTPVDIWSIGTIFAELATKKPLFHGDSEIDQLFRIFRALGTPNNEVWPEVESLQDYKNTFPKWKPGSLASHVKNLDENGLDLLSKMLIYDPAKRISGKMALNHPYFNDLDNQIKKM
Sequence (P14635 whole entry partner): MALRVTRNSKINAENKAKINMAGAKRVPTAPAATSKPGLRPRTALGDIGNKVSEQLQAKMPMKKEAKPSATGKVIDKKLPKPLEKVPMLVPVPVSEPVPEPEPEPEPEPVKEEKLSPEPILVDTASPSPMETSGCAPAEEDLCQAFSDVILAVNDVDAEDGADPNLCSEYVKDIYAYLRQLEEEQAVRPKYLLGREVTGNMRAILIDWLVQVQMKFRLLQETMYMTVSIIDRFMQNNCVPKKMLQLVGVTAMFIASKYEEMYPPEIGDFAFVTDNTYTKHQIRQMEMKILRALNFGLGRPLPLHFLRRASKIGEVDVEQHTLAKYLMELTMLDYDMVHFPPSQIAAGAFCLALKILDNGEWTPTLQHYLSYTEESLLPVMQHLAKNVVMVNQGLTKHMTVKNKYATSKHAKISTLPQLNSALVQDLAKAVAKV
assay.details: CDK1/Cyclin B kinase assay (FlashPlate or HTRF)
run.parameters: recombinant human CDK1/Cyclin B, Rb substrate; Ki=IC50/(1+[S]/Km)
Experimental: To determine inhibition of CDK1 activity, either FlashPlate™ (NEN™-Life Science Products) assay or HTRF assay was performed. Both types of kinase assays were carried out using recombinant human CDK1/Cyclin B complex. […] Purified Rb fusion protein stocks were quantitated for protein concentration, aliquoted, and stored at −70° C. […] The Homogeneous Time Resolved Fluorescence (HTRF) kinase assay was carried out in 96-well polypropylene plates (BD Biosciences, Bedford, Mass.). […]
pKi: −log10 of the molar value.
property: pKi

{"columns": ["molecule", "experimental.result"],
 "data": [
  ["CC(C)Oc1c(C#N)cnc2ccc(/C=C3\\SC(NCc4cccs4)=NC3=O)nc12 [Example 4]", 7.33]
]}

[A] CC(C)Oc1c(C#N)cnc2ccc(/C=C3\SC(N)=NC3=O)nc12 [Example 1]
[B] CC(C)Oc1c(C#N)cnc2ccc(/C=C3\SC(NCc4ccccc4Cl)=NC3=O)nc12 [Example 2]
[C] CC(C)Oc1c(C#N)cnc2ccc(/C=C3\SC(N[C@@H]4C[C@H]4c4ccccc4)=NC3=O)nc12 [Example 3]
[D] Cc1cccc(Cl)c1CNC1=NC(=O)/C(=C/c2ccc3ncc(C#N)cc3n2)S1 [Example 17]
Query string: Please list these molecules in decreasing order of pKi. Answer by writing out the labels in the requested order.
Result string: A, C, B, D
(A: 8.10, C: 7.11, B: 6.82, D: 6.27)

----------
target.under.test: CDK2 (Homo sapiens, UniProt P24941)
property: Ki (nM)
Provide only the numeric value, understood in nM.

Tested on CDK2 (Homo sapiens, UniProt P24941): CC(C)Oc1c(C#N)cnc2ccc(/C=C3\SC(NCc4ccccc4Cl)=NC3=O)nc12 [Example 2] . Observed Ki: 610

----------
target.under.test: UniProt P11802
Sequence (P11802 whole entry, species assumed): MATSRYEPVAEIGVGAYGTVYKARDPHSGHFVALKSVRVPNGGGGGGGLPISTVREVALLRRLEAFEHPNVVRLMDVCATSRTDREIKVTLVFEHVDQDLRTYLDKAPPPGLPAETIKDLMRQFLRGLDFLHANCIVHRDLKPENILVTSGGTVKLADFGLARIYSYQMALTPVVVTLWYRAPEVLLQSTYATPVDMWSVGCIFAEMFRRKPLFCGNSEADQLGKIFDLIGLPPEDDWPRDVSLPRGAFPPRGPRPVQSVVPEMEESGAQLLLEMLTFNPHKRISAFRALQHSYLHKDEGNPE
Sequence (P24385 whole entry partner, species assumed): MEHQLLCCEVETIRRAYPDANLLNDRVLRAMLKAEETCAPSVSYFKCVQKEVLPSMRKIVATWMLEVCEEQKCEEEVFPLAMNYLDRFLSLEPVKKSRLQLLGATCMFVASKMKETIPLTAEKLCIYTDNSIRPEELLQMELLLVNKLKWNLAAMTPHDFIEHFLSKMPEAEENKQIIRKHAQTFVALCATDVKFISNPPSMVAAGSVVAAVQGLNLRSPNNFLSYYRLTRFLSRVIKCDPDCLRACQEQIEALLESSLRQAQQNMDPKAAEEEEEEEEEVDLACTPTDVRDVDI
property: Ki

Value sought: Ki, system UniProt P11802, item "CC(C)Oc1c(C#N)cnc2ccc(/C=C3\SC(N)=NC3=O)nc12" . Result: > 10 µM

Numbers sourced from patent US7304074B2.
